// reported pEC50 per item
MEASUREMENT TARGET: human GLP1R (hGLP1R) (Homo sapiens, UniProt P43220)
Sequence (P43220 24-463): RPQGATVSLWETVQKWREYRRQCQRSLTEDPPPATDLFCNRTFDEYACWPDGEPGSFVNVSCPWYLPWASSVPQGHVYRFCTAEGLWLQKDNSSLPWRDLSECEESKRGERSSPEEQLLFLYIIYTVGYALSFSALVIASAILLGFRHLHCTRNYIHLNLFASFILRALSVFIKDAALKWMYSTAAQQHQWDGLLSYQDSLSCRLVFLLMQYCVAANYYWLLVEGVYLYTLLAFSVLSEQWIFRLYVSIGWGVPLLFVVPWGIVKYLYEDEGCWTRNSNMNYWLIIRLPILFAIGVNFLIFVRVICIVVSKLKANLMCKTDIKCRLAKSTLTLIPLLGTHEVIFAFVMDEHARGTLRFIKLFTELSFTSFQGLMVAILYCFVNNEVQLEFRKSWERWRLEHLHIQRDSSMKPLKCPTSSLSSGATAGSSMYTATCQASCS
ASSAY: Human GLP1R cAMP agonist assay (GloSensor cAMP Assay)
Type: cell-based
PROTOCOL CONDITIONS: intracellular cAMP, HEK293-SNAP-hGLP1R-GloSensor cells, 12 min at rt
Quick note: pEC50 values are minus log10 of concentrations in mol/L.

Previously resolved entries follow.
>  <COMPOUND STRUCTURE STRING>
Cc1c(-c2coc(C(=O)O)n2)nc(CN2CCC(c3cccc4c3O[C@@](C)(c3ccc(Cl)cc3F)O4)CC2)n1C[C@@H]1CCO1

>  <pEC50>
9.73

$$$$
>  <COMPOUND STRUCTURE STRING>
CCc1nc(CN2CCC(c3cccc4c3O[C@@](C)(c3ccc(Cl)cc3F)O4)CC2)n(C[C@H]2CCO2)c1-c1nc(C(=O)O)co1

>  <pEC50>
10.45

$$$$
>  <COMPOUND STRUCTURE STRING>
Cc1nc(CN2CCC(c3cccc4c3O[C@@](C)(c3ccc(Cl)cc3F)O4)CC2)n(C[C@@H]2CCO2)c1-c1cc(C(=O)O)n(C)n1

>  <pEC50>
9.08

$$$$

Consider Cc1c(-c2nc(C(=O)O)co2)nc(CN2CCC(c3cccc4c3O[C@@](C)(c3ccc(Cl)cc3F)O4)CC2)n1C[C@@H]1CCO1 . Its measured pEC50 is 9.42

Consider Cc1oc(-c2nc(CN3CCC(c4cccc5c4O[C@@](C)(c4ccc(Cl)cc4F)O5)CC3)n(C[C@@H]3CCO3)c2C)nc1C(=O)O . Its measured pEC50 is 9.24

Consider Cc1cc(-c2nc(CN3CCC(c4cccc5c4O[C@@](C)(c4ccc(Cl)cc4F)O5)CC3)n(C[C@@H]3CCO3)c2C)oc1C(=O)O . Its measured pEC50 is 9.42

Consider Cc1nc(-c2nc(CN3CCC(c4cccc5c4O[C@@](C)(c4ccc(Cl)cc4F)O5)CC3)n(C[C@@H]3CCO3)c2C)oc1C(=O)O . Its measured pEC50 is 9.95

Consider CCc1oc(-c2c(C)nc(CN3CCC(c4cccc5c4O[C@@](C)(c4ccc(Cl)cc4F)O5)CC3)n2C[C@@H]2CCO2)nc1C(=O)O . Its measured pEC50 is 9.85

Consider Cc1nc(CN2CCC(c3cccc4c3O[C@@](C)(c3ccc(Cl)cc3F)O4)CC2)n(C[C@@H]2CCO2)c1-c1nc(C(=O)O)co1 . Its measured pEC50 is 9.99

The origin of these recorded values is patent US20250145600A1.
